biological target: UniProt P22411; test: Stability of the compound assessed as porcine DPP4-mediated compound degradation measured intact level at 0.1 mM measured at 30 mins by reverse-phase HPLC/MS analysis; type: ADME; conditions: pig, read-out: Stability
Sequence (P22411 whole entry): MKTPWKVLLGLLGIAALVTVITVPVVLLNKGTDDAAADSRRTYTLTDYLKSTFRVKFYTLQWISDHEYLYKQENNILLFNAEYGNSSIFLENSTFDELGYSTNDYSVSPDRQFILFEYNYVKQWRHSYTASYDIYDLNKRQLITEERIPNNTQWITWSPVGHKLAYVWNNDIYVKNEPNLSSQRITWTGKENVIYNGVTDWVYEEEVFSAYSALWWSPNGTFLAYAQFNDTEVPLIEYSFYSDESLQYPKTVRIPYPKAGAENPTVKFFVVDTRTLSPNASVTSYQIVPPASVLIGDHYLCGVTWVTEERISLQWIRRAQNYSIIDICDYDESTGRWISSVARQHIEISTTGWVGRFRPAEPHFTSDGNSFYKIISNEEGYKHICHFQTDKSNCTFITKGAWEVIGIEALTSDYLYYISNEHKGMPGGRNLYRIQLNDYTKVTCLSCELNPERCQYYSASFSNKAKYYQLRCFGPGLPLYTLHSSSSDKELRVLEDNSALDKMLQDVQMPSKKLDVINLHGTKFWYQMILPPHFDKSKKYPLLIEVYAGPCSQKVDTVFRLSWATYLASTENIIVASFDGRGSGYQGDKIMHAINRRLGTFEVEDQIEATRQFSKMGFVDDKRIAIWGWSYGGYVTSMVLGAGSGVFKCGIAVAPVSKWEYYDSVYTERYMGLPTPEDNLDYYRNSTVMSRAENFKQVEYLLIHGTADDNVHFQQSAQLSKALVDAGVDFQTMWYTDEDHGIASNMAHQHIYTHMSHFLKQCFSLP
Peptide text beside a SMILES is read from it.
Observed Property: remaining at 0.5 h, 100 µM

compound="CC[C@H](C)[C@H](NC(=O)[C@@H]1CCCN1C(=O)[C@H](C)N)C(=O)N[C@@H](CO)C(=O)N[C@@H](Cc1c[nH]c2ccccc12)C(=O)N[C@@H](CO)C(=O)O (H-APISWS-OH)" observed_property="remaining at 0.5 h, 100 µM" result="< 70%"

Observed remaining at 0.5 h, 100 µM on UniProt P22411 for CC(C)C[C@H](NC(=O)[C@@H]1CCCN1C(=O)[C@H](C)N)C(=O)N[C@@H](CO)C(=O)N[C@@H](Cc1c[nH]c2ccccc12)C(=O)N[C@@H](CO)C(=O)O (H-APLSWS-OH) , please.
< 70%

---

Known pKi of a selection of compounds
biological target: Dipeptidyl peptidase 4 (Homo sapiens, UniProt P27487); assay: Competitive inhibition of human recombinant DPP4 using AP-pNA as substrate preincubated for 30 mins followed by substrate addition measured after 30 mins by spectrophotometric analysis
Sequence (P27487 whole entry): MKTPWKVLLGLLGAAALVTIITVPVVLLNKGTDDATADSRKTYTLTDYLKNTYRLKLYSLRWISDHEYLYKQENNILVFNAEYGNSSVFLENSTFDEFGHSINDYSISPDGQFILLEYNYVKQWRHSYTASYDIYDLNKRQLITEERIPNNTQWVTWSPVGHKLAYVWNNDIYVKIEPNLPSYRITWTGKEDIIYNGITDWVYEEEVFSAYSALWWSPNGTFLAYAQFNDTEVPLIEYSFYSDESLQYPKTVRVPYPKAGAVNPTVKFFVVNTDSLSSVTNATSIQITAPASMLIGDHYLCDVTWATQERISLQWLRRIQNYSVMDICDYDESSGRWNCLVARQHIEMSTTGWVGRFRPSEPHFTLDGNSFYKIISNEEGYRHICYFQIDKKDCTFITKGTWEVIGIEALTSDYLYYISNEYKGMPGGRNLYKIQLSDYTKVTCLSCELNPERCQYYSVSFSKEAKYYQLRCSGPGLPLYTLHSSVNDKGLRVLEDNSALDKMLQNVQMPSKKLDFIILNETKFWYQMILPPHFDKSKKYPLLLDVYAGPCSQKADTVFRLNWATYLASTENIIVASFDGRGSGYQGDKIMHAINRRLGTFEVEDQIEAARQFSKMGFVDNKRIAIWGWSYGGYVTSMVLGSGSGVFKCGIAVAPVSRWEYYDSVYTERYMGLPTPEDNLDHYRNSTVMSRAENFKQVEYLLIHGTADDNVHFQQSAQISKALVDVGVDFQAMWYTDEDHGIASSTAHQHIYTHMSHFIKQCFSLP
Square brackets hold non-standard residues; d marks the D form. Peptide text beside a SMILES is read from it. ξ: configuration not given here. ξTle = CC(C)(C)C(N)C(=O)O
Please treat pKi as minus the base-10 logarithm of the molar concentration.

compound="CC(C)[C@H](N)C(=O)N1CCC[C@H]1C(=O)N[C@@H](CC(=O)O)C(=O)N1CCC[C@H]1C(=O)N[C@@H](CCCNC(=N)N)C(N)=O (H-VPDPR-NH2)" numeric_readout=3.85

Quick one: pKi of CC(C)[C@H](N)C(=O)N1CCC[C@H]1C(=O)NC(C(=O)N1CCC[C@H]1C(=O)N[C@@H](CCCNC(=N)N)C(N)=O)C(C)(C)C (some centres not stated) (H-VP[ξTle]PR-NH2) ?
5.35

---

target: UniProt P14740; experiment: Metabolic stability in rat serum assessed as half life of DPP4-mediated compound degradation; format: ADME, cell-free
Sequence (P14740 whole entry): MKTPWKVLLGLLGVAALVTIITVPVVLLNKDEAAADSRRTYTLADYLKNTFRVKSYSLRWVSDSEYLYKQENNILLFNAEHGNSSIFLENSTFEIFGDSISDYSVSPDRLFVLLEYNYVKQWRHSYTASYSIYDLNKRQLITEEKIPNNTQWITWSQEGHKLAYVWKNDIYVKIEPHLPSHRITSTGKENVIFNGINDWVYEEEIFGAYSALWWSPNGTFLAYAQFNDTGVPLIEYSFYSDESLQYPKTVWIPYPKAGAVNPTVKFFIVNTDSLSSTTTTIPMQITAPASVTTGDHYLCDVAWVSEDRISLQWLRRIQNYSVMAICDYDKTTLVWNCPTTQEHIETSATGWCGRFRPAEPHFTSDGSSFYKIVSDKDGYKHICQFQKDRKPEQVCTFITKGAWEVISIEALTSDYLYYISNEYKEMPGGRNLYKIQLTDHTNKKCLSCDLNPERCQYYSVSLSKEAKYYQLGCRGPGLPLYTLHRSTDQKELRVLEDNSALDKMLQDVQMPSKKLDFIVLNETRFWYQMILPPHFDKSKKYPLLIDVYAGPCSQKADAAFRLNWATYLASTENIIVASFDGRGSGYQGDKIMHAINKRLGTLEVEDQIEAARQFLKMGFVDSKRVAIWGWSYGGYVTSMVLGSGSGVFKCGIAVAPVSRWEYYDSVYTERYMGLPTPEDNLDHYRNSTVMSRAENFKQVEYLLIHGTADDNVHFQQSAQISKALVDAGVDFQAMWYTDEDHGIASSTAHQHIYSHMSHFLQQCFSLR
Peptide text beside a SMILES is read from it.
Observed Property: half-life (min)
All answers are understood in min, so give the number only.

What value of half-life has been reported for the following compound? CC(C)[C@H](N)C(=O)N1CCC[C@H]1C(=O)N[C@@H](CC(=O)O)C(=O)N1CCC[C@H]1C(=O)N[C@@H](CCCNC(=N)N)C(N)=O (H-VPDPR-NH2)
5
